Target: Coagulation factor X (Homo sapiens)
Sequence (P00742 41-179 limits assumed): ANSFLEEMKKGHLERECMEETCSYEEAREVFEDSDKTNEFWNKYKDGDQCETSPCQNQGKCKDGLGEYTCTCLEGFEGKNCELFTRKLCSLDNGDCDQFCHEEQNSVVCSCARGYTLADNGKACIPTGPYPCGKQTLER
Sequence (P00742 235-488 limits assumed): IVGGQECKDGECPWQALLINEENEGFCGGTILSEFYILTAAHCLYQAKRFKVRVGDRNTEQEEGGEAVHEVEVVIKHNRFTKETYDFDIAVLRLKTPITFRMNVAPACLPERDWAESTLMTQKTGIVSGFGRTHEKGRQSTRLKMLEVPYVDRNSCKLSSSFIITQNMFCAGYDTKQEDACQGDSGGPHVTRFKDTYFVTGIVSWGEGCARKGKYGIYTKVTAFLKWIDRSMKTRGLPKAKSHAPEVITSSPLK
Quick reference for Ki among some compounds
property-label: Ki (nM)

[
  {
    "structure-smiles": "CC(C)(C)NC(=O)NC1CCN(C(=O)[C@H](Cc2cccc(C(=N)N)c2)NS(=O)(=O)c2cccc(-c3cccc(CN)c3)c2)CC1",
    "property-label": "Ki",
    "unit": "nM",
    "quantitative-readout": 0.1
  },
  {
    "structure-smiles": "CC(C)(C)NC(=O)NC1CCN(C(=O)[C@H](Cc2cccc(C(=N)N)c2)NS(=O)(=O)c2cccc(-c3ccc(Cl)cc3Cl)c2)CC1",
    "property-label": "Ki",
    "unit": "nM",
    "quantitative-readout": 4
  },
  {
    "structure-smiles": "Cc1ccc(-c2cccc(S(=O)(=O)N[C@@H](Cc3cccc(C(=N)N)c3)C(=O)N3CCC(NC(=O)NC(C)(C)C)CC3)c2)cc1",
    "property-label": "Ki",
    "unit": "nM",
    "quantitative-readout": 28
  },
  {
    "structure-smiles": "CC(C)(C)NC(=O)NC1CCN(C(=O)[C@H](Cc2cccc(C(=N)N)c2)NS(=O)(=O)c2cccc(-c3cccc(CO)c3)c2)CC1",
    "property-label": "Ki",
    "unit": "nM",
    "quantitative-readout": 33
  }
]

====

This document collects pKi values reported for Suppressor of tumorigenicity 14 protein (Homo sapiens).
pKi: −log10 of the molar value.
property-label: pKi

[
  {
    "structure-smiles": "CC(C)(C)NC(=O)NC1CCN(C(=O)[C@H](Cc2cccc(C(=N)N)c2)NS(=O)(=O)c2cccc(-c3cccc(CO)c3)c2)CC1",
    "quantitative-readout": 7.23
  },
  {
    "structure-smiles": "COc1ccc(-c2cccc(S(=O)(=O)N[C@@H](Cc3cccc(C(=N)N)c3)C(=O)N3CCN(C(=O)NC4CCCCC4)CC3)c2)c(OC)c1",
    "quantitative-readout": 7.42
  },
  {
    "structure-smiles": "COc1ccc(-c2cccc(S(=O)(=O)N[C@@H](Cc3cccc(C(=N)N)c3)C(=O)N3CCN(C(=O)NC(C)(C)C)CC3)c2)c(OC)c1",
    "quantitative-readout": 6.98
  },
  {
    "structure-smiles": "CC(C)Oc1ccc(-c2cccc(S(=O)(=O)N[C@@H](Cc3cccc(C(=N)N)c3)C(=O)N3CCC(NC(=O)NC(C)(C)C)CC3)c2)cc1",
    "quantitative-readout": 7.24
  },
  {
    "structure-smiles": "CC(C)(C)NC(=O)NC1CCN(C(=O)[C@H](Cc2cccc(C(=N)N)c2)NS(=O)(=O)c2cccc(-c3ccc(Cl)cc3Cl)c2)CC1",
    "quantitative-readout": 8.30
  },
  {
    "structure-smiles": "CC(C)(C)NC(=O)NC1CCN(C(=O)[C@H](Cc2cccc(C(=N)N)c2)NS(=O)(=O)c2cccc(-c3cccc(C(=N)N)c3)c2)CC1",
    "quantitative-readout": 9.15
  },
  {
    "structure-smiles": "CC(C)(C)NC(=O)NC1CCN(C(=O)[C@H](Cc2cccc(C(=N)N)c2)NS(=O)(=O)c2cccc(-c3ccc(CN)cc3)c2)CC1",
    "quantitative-readout": 8.40
  }
]

====

Molecular target: Prothrombin (Bos taurus, UniProt P00735)
Experiment: Binding affinity to bovine thrombin assessed as inhibition constant using tosyl-Gly-Pro-Arg-AMC as substrate
pKi: −log10 of the molar value.
I would appreciate it if you labelled entries rule met when pKi is 6 or higher, otherwise rule not met.

[
  {
    "structure-smiles": "CC(C)(C)NC(=O)NC1CCN(C(=O)[C@H](Cc2cccc(C(=N)N)c2)NS(=O)(=O)c2cccc(-c3cccc(C(=N)N)c3)c2)CC1",
    "label-value": "rule not met"
  },
  {
    "structure-smiles": "CC(C)(C)NC(=O)NC1CCN(C(=O)[C@H](Cc2cccc(C(=N)N)c2)NS(=O)(=O)c2cccc(-c3ccc(CO)c(F)c3)c2)CC1",
    "label-value": "rule not met"
  },
  {
    "structure-smiles": "CC(C)(C)NC(=O)NC1CCN(C(=O)[C@H](Cc2cccc(C(=N)N)c2)NS(=O)(=O)c2cccc(-c3cc(F)c(CO)c(F)c3)c2)CC1",
    "label-value": "rule not met"
  },
  {
    "structure-smiles": "Cc1ccc(-c2cccc(S(=O)(=O)N[C@@H](Cc3cccc(C(=N)N)c3)C(=O)N3CCC(NC(=O)NC(C)(C)C)CC3)c2)cc1",
    "label-value": "rule met"
  },
  {
    "structure-smiles": "COc1ccc(-c2cccc(S(=O)(=O)N[C@@H](Cc3cccc(C(=N)N)c3)C(=O)N3CCC(NC(=O)NC(C)C)CC3)c2)c(OC)c1",
    "label-value": "rule met"
  },
  {
    "structure-smiles": "CC(C)(C)NC(=O)NC1CCN(C(=O)[C@H](Cc2cccc(C(=N)N)c2)NS(=O)(=O)c2cccc(-c3cccc(CO)c3)c2)CC1",
    "label-value": "rule met"
  },
  {
    "structure-smiles": "COc1ccc(-c2cccc(S(=O)(=O)N[C@@H](Cc3cccc(C(=N)N)c3)C(=O)N3CCN(C(=O)C4CCCCC4)CC3)c2)c(OC)c1",
    "label-value": "rule met"
  },
  {
    "structure-smiles": "CC(C)Oc1ccc(-c2cccc(S(=O)(=O)N[C@@H](Cc3cccc(C(=N)N)c3)C(=O)N3CCC(NC(=O)NC(C)(C)C)CC3)c2)cc1",
    "label-value": "rule not met"
  },
  {
    "structure-smiles": "COc1ccc(-c2cccc(S(=O)(=O)N[C@@H](Cc3cccc(C(=N)N)c3)C(=O)N3CCC(NC(=O)NC(C)(C)C)CC3)c2)c(OC)c1",
    "label-value": "rule not met"
  }
]
